Test system: HepG2
EXPERIMENTAL PROTOCOL: Solid tumour and haematological malignancy assay (CellTiterGlo)
Format: cell-based
ASSAY SETUP: Homo sapiens, HepG2, 72 h, read-out: IC50 (absolute IC50)
REPORTED METRIC: IC50

> print(dat)
                                    compound  system.name  reported.metric  recorded.measurement
 1  CCCCCCOC(=O)[C@H](C)NP(=O)(OC[C@@H]1C[C@@H](O)[C@H](n2cnc3c(N)nc(F)nc32)O1)Oc1ccccc1 (stereo partly shown)        HepG2             IC50            5 to 15 µM
 2  COC(=O)C(C)(C)NP(=O)(OC[C@@H]1C[C@@H](O)[C@H](n2cnc3c(N)ncnc32)O1)Oc1cccc2ccccc12 (stereo partly shown)        HepG2             IC50          15 to 100 µM
 3  Nc1ncnc2c1ncn2[C@@H]1O[C@H](COP(=O)(NCC(=O)OCc2ccccc2)Oc2ccccc2)C[C@H]1O (stereo partly shown)        HepG2             IC50          15 to 100 µM
 4  CCCCCOC(=O)[C@H](CC(C)C)NP(=O)(OC[C@@H]1C[C@H](O)[C@H](n2cnc3c(N)nc(F)nc32)O1)Oc1cccc2ccccc12 (stereo partly shown)        HepG2             IC50           0.1 to 5 µM
 5  Nc1nc(F)nc2c1ncn2[C@@H]1O[C@H](CO)C[C@H]1O [2-F-Cordycepin, 3′deoxy-2-fluoroadenosine, reference compound]        HepG2             IC50          15 to 100 µM
 6  C[C@H](NP(=O)(OC[C@@H]1C[C@H](O)[C@H](n2cnc3c(N)nc(F)nc32)O1)Oc1cccc2ccccc12)C(=O)OCc1ccccc1 (stereo partly shown)        HepG2             IC50            5 to 15 µM
 7  C[C@H](NP(=O)(OC[C@@H]1CC(O)[C@H](n2cnc3c(N)ncnc32)O1)Oc1ccccc1)C(=O)OCc1ccccc1 (stereo partly shown)        HepG2             IC50          15 to 100 µM
 8  CCOC(=O)CCc1ccccc1OP(=O)(N[C@@H](C)C(=O)OCc1ccccc1)OC[C@@H]1C[C@@H](O)[C@H](n2cnc3c(N)ncnc32)O1 (stereo partly shown)        HepG2             IC50          15 to 100 µM
 9  C[C@H](NP(=O)(OC[C@@H]1C[C@@H](O)[C@H](n2cnc3c(N)ncnc32)O1)Oc1cccc2ccccc12)C(=O)OCc1ccccc1 (stereo partly shown)        HepG2             IC50            5 to 15 µM
10  C[C@H](NP(=O)(OC[C@@H]1C[C@@H](O)[C@H](n2cnc3c(N)nc(F)nc32)O1)Oc1ccccc1)C(=O)OCc1ccccc1 (mixture of isomers)        HepG2             IC50            5 to 15 µM
